system: Brassica juncea; assay: Post-emergence herbicidal activity against Brassica juncea seedlings assessed as plant growth inhibition at 150 g ai/ha measured 15 days after compound treatment under greenhouse conditions; assay type: functional; conditions: 360 h, read-out: GI
RESULT TYPE: inhibition of growth at 150 g/ha (%)

| COMPOUND | RESULT TYPE | UNIT STRING | MODIFIER SIGN | VALUE MEASURED |
| --- | --- | --- | --- | --- |
| CCOC(=O)CSc1nc2cc(-n3nc(C)n(C(F)F)c3=O)c(Br)cc2s1 | inhibition of growth at 150 g/ha | % | ≥ | 90 |
| Cc1nn(-c2cc3nc(SCCC(=O)O)sc3cc2Cl)c(=O)n1C(F)F | inhibition of growth at 150 g/ha | % | ≥ | 90 |
| CCCSc1nc2cc(-n3nc(C)n(C(F)F)c3=O)c(F)cc2s1 | inhibition of growth at 150 g/ha | % | = | 60 |
| C=CCSc1nc2cc(-n3nc(C)n(C(F)F)c3=O)c(Br)cc2s1 | inhibition of growth at 150 g/ha | % | = | 50 |
| CCOC(=O)C(C)Sc1nc2cc(-n3nc(C)n(C(F)F)c3=O)c(F)cc2s1 (stereo not given) | inhibition of growth at 150 g/ha | % | ≥ | 90 |

###

Reported inhibition of growth at 150 g/ha values follow for various compounds
tested on: Digitaria sanguinalis; experiment: Post-emergence herbicidal activity against Digitaria sanguinalis (hairy crabgrass) seedlings assessed as plant growth inhibition at 150 g ai/ha measured 15 days after compound treatment under greenhouse conditions; assay type: functional; conditions: 360 h, read-out: GI

| COMPOUND | inhibition of growth at 150 g/ha |
| --- | --- |
| CCOC(=O)CSc1nc2cc(-n3nc(C)n(C(F)F)c3=O)c(Cl)cc2s1 | ≥ 90% |
| CCOC(=O)Sc1nc2cc(-n3nc(C)n(C(F)F)c3=O)c(F)cc2s1 | 50% |
| Cc1nn(-c2cc(NS(C)(=O)=O)c(Cl)cc2Cl)c(=O)n1C(F)F [SULFENTRAZONE] | 60% |
| CCOC(=O)CSc1nc2cc(-n3nc(C)n(C(F)F)c3=O)c(F)cc2s1 | ≥ 90% |
| CSc1nc2cc(-n3nc(C)n(C(F)F)c3=O)c(Cl)cc2s1 | 50% |
| CCCSc1nc2cc(-n3nc(C)n(C(F)F)c3=O)c(Cl)cc2s1 | < 50% |
| CCCCSc1nc2cc(-n3nc(C)n(C(F)F)c3=O)c(Cl)cc2s1 | < 50% |
| COC(=O)CSc1nc2cc(-n3nc(C)n(C(F)F)c3=O)c(F)cc2s1 | ≥ 90% |
| Cc1nn(-c2cc3nc(SC(C)C(=O)O)sc3cc2Cl)c(=O)n1C(F)F (stereo not given) | ≥ 90% |
| COC(=O)CSc1nc2cc(-n3nc(C)n(C(F)F)c3=O)c(Cl)cc2s1 | ≥ 90% |

###

tested on: Brassica juncea; assay: Post-emergence herbicidal activity against Brassica juncea seedlings assessed as plant growth inhibition at 150 g ai/ha measured 15 days after compound treatment under greenhouse conditions; type: functional; settings: 360 h, read-out: GI
RESULT TYPE: inhibition of growth at 150 g/ha

| COMPOUND | VALUE MEASURED |
| --- | --- |
| Cc1nn(-c2cc3nc(SCCC(=O)O)sc3cc2F)c(=O)n1C(F)F | ≥ 90% |
| Cc1nn(-c2cc3nc(SCC(=O)O)sc3cc2Cl)c(=O)n1C(F)F | ≥ 90% |
| CSc1nc2cc(-n3nc(C)n(C(F)F)c3=O)c(F)cc2s1 | < 50% |
| C=CCSc1nc2cc(-n3nc(C)n(C(F)F)c3=O)c(Cl)cc2s1 | 60% |
| CCCSc1nc2cc(-n3nc(C)n(C(F)F)c3=O)c(Cl)cc2s1 | ≥ 90% |
| CSc1nc2cc(-n3nc(C)n(C(F)F)c3=O)c(Cl)cc2s1 | 60% |
| COC(=O)CSc1nc2cc(-n3nc(C)n(C(F)F)c3=O)c(F)cc2s1 | ≥ 90% |
| COC(=O)Sc1nc2cc(-n3nc(C)n(C(F)F)c3=O)c(Cl)cc2s1 | < 50% |
| C=CCSc1nc2cc(-n3nc(C)n(C(F)F)c3=O)c(F)cc2s1 | < 50% |
| CCOC(=O)Sc1nc2cc(-n3nc(C)n(C(F)F)c3=O)c(F)cc2s1 | ≥ 90% |
| Cc1nn(-c2cc(NS(C)(=O)=O)c(Cl)cc2Cl)c(=O)n1C(F)F | ≥ 90% |
| CCOC(=O)Sc1nc2cc(-n3nc(C)n(C(F)F)c3=O)c(Cl)cc2s1 | < 50% |
| CCCCSc1nc2cc(-n3nc(C)n(C(F)F)c3=O)c(F)cc2s1 | 60% |
| Cc1nn(-c2cc3nc(SC(C)C(=O)O)sc3cc2F)c(=O)n1C(F)F (configuration not stated) | ≥ 90% |
| CCOC(=O)CSc1nc2cc(-n3nc(C)n(C(F)F)c3=O)c(F)cc2s1 | ≥ 90% |
| COC(=O)CSc1nc2cc(-n3nc(C)n(C(F)F)c3=O)c(Cl)cc2s1 | ≥ 90% |
| CCOC(=O)CSc1nc2cc(-n3nc(C)n(C(F)F)c3=O)c(Cl)cc2s1 | ≥ 90% |
| Cc1nn(-c2cc3nc(SC(C)C(=O)O)sc3cc2Cl)c(=O)n1C(F)F (configuration not stated) | ≥ 90% |
| Cc1nn(-c2cc3nc(SCC(=O)O)sc3cc2F)c(=O)n1C(F)F | ≥ 90% |
| CCOC(=O)C(C)Sc1nc2cc(-n3nc(C)n(C(F)F)c3=O)c(Cl)cc2s1 (configuration not stated) | ≥ 90% |
| COC(=O)Sc1nc2cc(-n3nc(C)n(C(F)F)c3=O)c(F)cc2s1 | ≥ 90% |
| CCCCSc1nc2cc(-n3nc(C)n(C(F)F)c3=O)c(Cl)cc2s1 | 50% |
